System: SR leukemia
Assay: NCI tumour cell line growth inhibition, 48 h
Each entry below lists one item and its recorded TGI value.

# count of solved cases: 3
• CSc1n[nH]c(N)c1C(=O)Nc1ccc(Cl)cc1 = > 100 µM
• Cn1ncc2cc(-c3cnc(N)c(Cl)c3N3CCC4(CCNC4=O)CC3)ccc21 = 57.2 µM
• CCCCCCCCCCCCNC(=O)NCC(OCC)OCC = > 10 µM

TGI in this record for Cc1ccc(-c2cc(-c3ccco3)nc(N)n2)o1 : > 100 µM

Reported TGI of C1=C2SSC3=CC=C(SSc4ccc(s4)SSC4=CC=C(SSC(=C1)S2)S4)S3 : > 100 µM

// recorded TGI for CC(C)(C)C1CC[C@H]2c3c([nH]c4ccc(Br)cc34)[C@H]3C(=O)N(c4ccccc4)C(=O)[C@H]3[C@H]2C1 (stereo not given in full) : 12.1 µM

CS(=O)(=O)C1S(=O)(=O)OCCOS1(=O)=O yielded TGI of > 100 µM

// field: TGI; key: COC(=O)Cc1c([C@@H]2Nc3ccccc3[C@H]2CC(=O)OC)[nH]c2ccccc12 ; value = 71.4 µM

Query C=C1C(=O)O[C@H]2[C@H]1CC/C(COC(=O)OCCCCCOC(=O)OC/C1=C/CC[C@@]3(C)O[C@H]3[C@H]3OC(=O)C(=C)[C@@H]3CC1)=C\CC[C@@]1(C)O[C@@H]21 yields TGI of 0.744 µM

The recorded TGI for entry COC(=O)OC[C@H]1O[C@@H](n2cc(C)c(=O)[nH]c2=O)CC1OC(=O)OC (stereo not given in full) equals > 100 µM

Consider CCOC(=O)NNC(=O)NCCNC(=O)NNC(=O)OCC . Its measured TGI is > 100 µM

* * *

Tested on: UO-31 renal
Assay: NCI tumour cell line growth inhibition, 48 h
readout name: TGI

// solved cases for TGI follow
• Cc1ccc(N=Nc2c(O)c3ccccc3[nH]c2=O)c(S(=O)(=O)N(C)C)c1 = > 100 µM
• O=C(CCSC(CC(=O)c1ccc(Cl)cc1)c1ccc(Cl)cc1)Nc1ccc(Cl)cc1 (stereo not given) = 26.9 µM
• CCOC(=O)c1nc2c3c(ncn2n1)Oc1c(c(-c2ccccc2)nn1-c1ccccc1)C3c1ccc(OC)c(OC)c1 (stereo not given) = > 100 µM
• CCOC(C)OCC#CCCBr (stereo not given) = > 100 µM
• N=C(N)/N=C(/C=C/c1ccccc1)CC1OC(=O)c2ccccc21 (stereo not given) = > 100 µM

TGI measured on Cn1ncc2c(Nc3ccc(Br)cc3)nc(Nc3ccc(Br)cc3)nc21 = 29 µM

For CC1=C/C(=C(\c2ccc(N(C)C)cc2)c2ccc([N+](C)(C)C)cc2)C=CC1=[N+](C)C the compound record lists TGI as 78.1 µM

In plain terms, COc1nc(OC)c2c(=O)oc(-c3ccccc3)cc2n1 has a documented TGI of > 100 µM

get_value(item= CC(C)C1CN1CC(O)Cn1ccnc1[N+](=O)[O-] (stereo not given) , readout=TGI) returns > 100 µM

For reference, reported TGI for CC1C(c2ccc(N(C)C)cc2)c2cc3c(cc2OC1N1CCCC1)OCO3 (stereo not given) stands at > 100 µM

* * *

Below, each entry is listed alongside its reported TGI.
System: KM12 colon
Assay: NCI tumour cell line growth inhibition, 48 h

Per the record, COc1nc(OC)c2c(=O)oc(-c3ccccc3)cc2n1 has TGI of > 100 µM

* * *

Test system: K-562 leukemia
Assay: NCI tumour cell line growth inhibition, 48 h
readout name: TGI

// solved cases for TGI follow
* CN(C)c1c(Cl)c(=O)oc2c1ccc1nc(-c3ccccc3)sc12 | > 100 µM
* O=C(CCN1CCCCC1CCO)Nc1ccc2c(c1)C(=O)c1ccc(NC(=O)CCN3CCCCC3CCO)cc1C2=O (configuration not stated) | > 100 µM
* COC(=O)[C@]1(C)CCCn2c(=O)n(-c3ccccc3)c(=O)n21 | > 100 µM

get_value(item= Cc1ccc(NS(=O)(=O)c2ccc(-c3cnc(C4CC4)o3)cc2)cc1 , readout=TGI) returns 16.3 µM

Measured TGI of O=S(=O)(O)c1cc(Cl)c(O)c2ncc(Cl)cc12 : > 100 µM

* * *

Tested on: HOP-62 NSCLC
Assay: NCI tumour cell line growth inhibition, 48 h
Here, each record is paired with measured TGI data.
Give the number; µM is assumed, so skip it.

* CCOC(=O)c1nc2c3c(ncn2n1)Oc1c(c(-c2ccccc2)nn1-c1ccccc1)C3c1ccc(OC)c(OC)c1 (stereo not given) | 48.5
* COc1ccc(-c2cc3c4c(nc5ccccc5c4c2)CC(c2cc(OC)c(OC)c(OC)c2)O3)cc1 (stereo not given) | 12.5

The record that follows has no TGI shown yet.
Per the records, this molecule ( O=C1N[C@H]2c3c(Cl)sc(Cl)c3C(=O)[C@H]2O1 ) has TGI equal to 42

* * *

Test system: MALME-3M melanoma
Experiment: NCI tumour cell line growth inhibition, 48 h; in the data active = GI50 below about 0.43 µM; inactive = the rest
Where a SMILES comes first, the peptide text is derived from it. [ ]: non-standard residue; d: D form. The star is where a group is joined. ξ: configuration not given here. X16 = COC1=CC(=O)N(C(=O)C(O*)C(C)C)C1Cc1ccccc1; ξNMe2Val = CC(C)C(C(=O)*)N(C)C; NMeV = CN[CH](C(=O)O)C(C)C
Write down one outcome, taken from 1 = active, 0 = inactive

* COc1ccc(/C=C2/CN(C(=O)c3ccccc3F)C/C(=C\c3ccc(OC)cc3)C2=O)cc1 | 0
* Cc1nc2sc(C(=O)Nc3cccc4ccccc34)c(N)c2cc1C(C)O (configuration not stated) | 1
* Cn1ncc2c(Nc3ccc(Br)cc3)nc(Nc3ccc(Br)cc3)nc21 | 0
* CCN(CC)c1ccc(NC(C(=O)c2ccccc2)c2ccccc2)cc1 (configuration not stated) | 0
* COC1=CC(=O)N(C(=O)C(OC(=O)C2CCCN2C(=O)C2CCCN2C(=O)C(C(C)C)N(C)C(=O)C(NC(=O)C(C(C)C)N(C)C)C(C)C)C(C)C)C1Cc1ccccc1 (configuration not stated) (ξNMe2Val-V[NMeV]PP-X16; configuration not given here) | 1

Next item in the queue.
Hi team, can someone confirm the assay call for CCOc1ccc(NC(=O)Nc2cc(C(C)C)ccc2C)cc1 ?
0

* * *

System: HCT-116 colon
Test: NCI tumour cell line growth inhibition, 48 h
readout name: TGI (µM)
The answer is to be given in µM; state only the numeric part.

- [N-]=N[N+]#I1OC(C(F)(F)F)(C(F)(F)F)c2ccccc21: 38.2

Now let's try a different one.
Lookup result for CN(C)[C@@H]1C(=O)C(C(N)=O)=C(O)[C@@]2(O)C(=O)C3=C(O)c4c(O)cccc4C[C@H]3C[C@@H]12 ; measured TGI: 3.28

* * *

System: SF-268 CNS
Test: NCI tumour cell line growth inhibition, 48 h
readout name: TGI

- COc1ccc(-n2c(CCCC(=O)O)nc3c2C(=O)c2ccccc2C3=O)cc1: > 100 µM

# compound O=C(Cc1ccc(Cl)c(Cl)c1)NCCCN1CCN(CCCN2CCCCC2)CC1 ; its TGI = 50.4 µM

Input Oc1ccc(-c2cc(-c3c(O)cc(O)cc3O)on2)cc1 . Output TGI: > 100 µM

Given item COc1ccc2c(O)c3[n+](cc2c1OC)CCc1cc2c(cc1-3)OCO2 , the value recorded as its TGI is > 100 µM

Form field TGI, entry CCOn1cc(C[C@@]2(O)C(=O)OC3[C@@H](O)CO[C@@]32O)c2ccccc21 (some centres undefined) : > 100 µM

The reported TGI of the compound COc1nc(OC)c2c(=O)oc(-c3ccccc3)cc2n1 was > 100 µM

* * *

Tested on: IGROV1 ovarian
Assay: NCI tumour cell line growth inhibition, 48 h
Measured TGI, listed per entry.

Measured TGI for this entry COc1c2nc(CCl)n(C)c(=O)c2c(OC)c2c(=O)n(C)c(CCl)nc12 on IGROV1 ovarian: 4.56 µM

Measured on IGROV1 ovarian, COC(=O)c1cnc2nc(N3CCOCC3)[nH]n2c1=O has a documented TGI of > 100 µM

Short answer on IGROV1 ovarian for CN(NC(=O)c1ccco1)C1=NCCCCN1 , TGI: > 100 µM

* * *

Test system: CCRF-CEM leukemia
Experiment: NCI tumour cell line growth inhibition, 48 h; in the data active means GI50 below about 0.43 µM; inactive means the rest
Assign a class; possible classes are Y = active, N = inactive

• CCOc1ccc(NC(=O)Nc2cc(C(C)C)ccc2C)cc1 = N
• OCCN1CCN(CCCN2c3ccccc3Sc3ccc(C(F)(F)F)cc32)CC1 = N
• COC1/C=C/O[C@@]2(C)Oc3c(C)c(O)c4c(O)c(cc(O)c4c3C2=O)NC(=O)/C(C)=C\C=C\[C@H](C)C(O)[C@@H](C)[C@@H](O)[C@@H](C)[C@H](OC(C)=O)[C@@H]1C (some centres not stated) = N
• CC1(C)CCC(S(=O)(=O)c2ccc3c(c2)/C(=N\O)c2cc(S(=O)(=O)N4CCC(O)(c5cccc(C(F)(F)F)c5)CC4)ccc2-3)CC1 = Y
• O=C(CC12CC3CC(CC(C3)C1)C2)NCCOCCOCCNC(=O)c1cc2c(o1)C(=O)c1ccccc1C2=O = N
• CO/N=C(\c1ccccc1)c1cnn(-c2ccccc2)c1N = N

Please share the test call associated with CS(=O)(=O)c1nccc(-c2c(-c3cccc(OCc4ccc(F)cc4)c3)nc3sccn23)n1 .
N

Could you please tell me the result logged for COc1ccccc1-c1cc2c3c(nc4ccccc42)C(=O)c2cccnc2-c3n1 in this assay?
N

Recorded call for O=C1C=C(SCCO)C(=O)c2ccccc21 ?
N

Per the records of this test, what outcome belongs to O=C(NCc1cn(Cc2cccc(Oc3ccccc3)c2)nn1)c1cccnc1Nc1ccccc1 ?
N

Write down the call the test reported for this molecule. Item: CCN(CC)c1ccc(NC(C(=O)c2ccccc2)c2ccccc2)cc1 (configuration not stated)
N

Would you mind telling me which call this test gave CC(=O)[CH-]C(=O)c1ccccc1.CC(=O)[CH-]C(=O)c1ccccc1.[Nd+3].[OH-].[OH3+] ?
N

Assay outcome for Cn1ncc2c(Nc3ccc(Br)cc3)nc(Nc3ccc(Br)cc3)nc21 : what was it?
N

# outcome recorded in this test, key = O=S(=O)(Nc1ccc(-c2nc(-c3cccc(OCCN4CCOCC4)c3)c(-c3ccnc(Br)c3)[nH]2)cc1)c1ccccc1
N

Assay result, entry Cc1ccc(S(=O)(=O)N(C)C)cc1[N+](=O)[O-] — outcome?
N

For this molecule, state the assay outcome: COc1ccc(OC)c(/C=C/[N+](=O)[O-])c1
N

What classification did Cc1nc2sc(C(=O)Nc3cccc4ccccc34)c(N)c2cc1C(C)O (configuration not stated) end up with in this test?
Y
